System: CSNK1G1;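 further: KINOMEscan kinase panel screen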
Conditions: concentration: 1 μM,replicates: in singlicate; n = 1

>  <CHEMICAL STRING>
CCn1c(-c2nonc2N)nc2cncc(Br)c21

>  <%Inh (%)>
5

$$$$
>  <CHEMICAL STRING>
CCN1CCN(CCCC(=O)Nc2n[nH]c3nc(-c4ccc(O)cc4)c(Br)cc23)CC1

>  <%Inh (%)>
0

$$$$
>  <CHEMICAL STRING>
NC(=O)c1ccc(-c2cc3ncnc(SCC(=O)O)c3s2)cc1

>  <%Inh (%)>
0

$$$$
>  <CHEMICAL STRING>
Cc1ccn2nc(-c3ccc(F)cc3)c(-c3ccncc3)c2c1.Cl

>  <%Inh (%)>
29

$$$$
>  <CHEMICAL STRING>
O=C1NCCc2[nH]c(-c3ccncc3)cc21

>  <%Inh (%)>
51

$$$$
>  <CHEMICAL STRING>
CCCC(=O)Nc1n[nH]c2ncccc12

>  <%Inh (%)>
0

$$$$
>  <CHEMICAL STRING>
CC(C)c1nc(-c2cccc(NS(=O)(=O)c3ccccc3)c2)c(-c2ccnc(Nc3ccc4c(c3)CN(C)CC4)n2)s1

>  <%Inh (%)>
19

$$$$
>  <CHEMICAL STRING>
CN(c1ccccc1CNc1nc(Nc2ccc3c(c2)CC(=O)N3)ncc1C(F)(F)F)S(C)(=O)=O

>  <%Inh (%)>
0

$$$$
>  <CHEMICAL STRING>
Cn1ccc2ncnc(Oc3ccc(NC(=O)Nc4cnn(C(C)(C)C)c4)c(Cl)c3)c21

>  <%Inh (%)>
0

$$$$
